B1: LOXL2 (parent)
chain: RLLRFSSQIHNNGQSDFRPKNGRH

Variants of: B1
Test summary: protein stability index of a GFP-peptide fusion (GPS, HEK-293T) (PSI 1-6); higher = more stable;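 note: lentivirally expressed fusions sorted by FACS into six bins by GFP to DsRed ratio, PSI derived from sequencing read proportions per bin multiplied by bin number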
Condition summary: c terminus: a fixed tail appended
So I've got a bunch of variants here, and I need their protein stability index values.
# output: bare number, no unit

The recorded protein stability index for RLLRGSSQIHNNGQSDFRPKNGRH is 4.21

# protein stability index (variant: RLWRFSSQIHNNGQSDFRPKNGRH ) is 2.64

Per the records, this variant ( RLLRFSSQIHNNGQIDFRPKNGRH ) has protein stability index equal to 2.72

protein stability index measured on RLLRFSDQIHNNGQSDFRPKNGRH = 3.57
